Source of measurements: patent US20130012432A1

# targetSystem: T1, MC1 receptor (UniProt Q01726 1-317, limits assumed)
# T1 construct: whole, on cells; also called melanocortin receptor subtype 1; melanocortin receptor 1
# T1 sequence (Q01726 whole entry): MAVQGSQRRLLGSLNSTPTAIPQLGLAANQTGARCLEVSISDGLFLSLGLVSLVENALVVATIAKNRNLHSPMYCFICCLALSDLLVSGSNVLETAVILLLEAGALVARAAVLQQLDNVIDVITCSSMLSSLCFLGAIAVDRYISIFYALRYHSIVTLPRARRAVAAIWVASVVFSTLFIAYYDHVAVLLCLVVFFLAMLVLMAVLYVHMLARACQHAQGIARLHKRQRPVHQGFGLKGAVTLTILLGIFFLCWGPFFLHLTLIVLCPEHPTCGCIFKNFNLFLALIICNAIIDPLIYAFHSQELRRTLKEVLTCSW
# assayOverview: 125I-NDP-α-MSH displacement, BHK-MC1 membranes (Assay IV);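 further: membrane incubations stopped by filtration, retained radioactivity counted, Ki fitted by nonlinear regression to binding curves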
Positions of bridges follow the written chain, without caps; N, C: chain ends. Non-standard residues stand in square brackets, D forms with d. Groups on a side chain read outwards from the residue. Primed or numbered codes have the meaning given here. *: point of attachment. X2 = (2-(2-(16-(tetrazol-5-yl)hexadecanoylamino)ethoxy)ethoxy)acetyl, O=C(CCCCCCCCCCCCCCCc1nn[nH]n1)NCCOCCOCC(=O)*; biscarboxymethyl = Lys(biscarboxymethyl) = Nepsilon-bis(carboxymethyl)-L-lysine; biscarboxymethyl(4) = Lys(biscarboxymethyl) = N6-bis(carboxymethyl)-L-lysine; bis(carboxymethyl) = Lys(biscarboxymethyl) = N6-bis(carboxymethyl)-L-lysine; Palmitoyl(16-(5-tetrazolyl)) = O=C(CCCCCCCCCCCCCCCc1nnn[nH]1)*; biscarboxymethyl(3) = Nepsilon-bis(carboxymethyl) on Lys; C18 diacid = O=C(O)CCCCCCCCCCCCCCCCC(=O)*; C16 diacid = O=C(O)CCCCCCCCCCCCCCC(=O)*; NTA = O=C(O)CN(CC(=O)O)CC(=O)*; Orn = NCCC[C@H](N)C(=O)O; Dab = NCC[C@H](N)C(=O)O; Dap = NC[C@H](N)C(=O)O; AEEA = NCCOCCOCC(=O)O
Just a reminder that ties go to F: only Ki strictly below 3000 nM counts as T.

binder: Ac-[Dap]H[dF]RWDPPRDK(biscarboxymethyl(3))K([AEEA-Palmitoyl(16-(5-tetrazolyl))])-NH2 (lactam 1-6)
assignedCategory: T
--
binder: Ac-[Dab]H[dF]RWDPPRDK(biscarboxymethyl(3))K([AEEA-Palmitoyl(16-(5-tetrazolyl))])-NH2 (lactam 1-6)
assignedCategory: F
--
binder: Ac-[Orn]H[dF]RWDPPREK(biscarboxymethyl)K(X2)-NH2 (lactam 1-6)
assignedCategory: T
--
binder: Ac-[Orn]H[dF]RWDPPRDK(biscarboxymethyl)K(X2)-NH2 (lactam 1-6)
assignedCategory: T
--
binder: Ac-DH[dF]RW[Dab]PPRDK(biscarboxymethyl(4))K(X2)-NH2 (lactam 1-6)
assignedCategory: F
--
binder: Ac-[Orn]H[dF]RWEPPRDK(bis(carboxymethyl))K([AEEA-Palmitoyl(16-(5-tetrazolyl))])-NH2 (lactam 1-6)
assignedCategory: T
--
binder: Ac-[Orn]H[dF]RWDPSSSK(bis(carboxymethyl))SSK([AEEA-C18 diacid])-NH2 (lactam 1-6)
assignedCategory: T
--
binder: Ac-CEH[dF]RWGCPPKEEK([AEEA-C16 diacid])-NH2 (disulfide 1-8; SMILES CC(=O)N[C@H]1CSSC[C@@H](C(=O)N2CCC[C@H]2C(=O)N2CCC[C@H]2C(=O)N[C@@H](CCCCN)C(=O)N[C@@H](CCC(=O)O)C(=O)N[C@@H](CCC(=O)O)C(=O)N[C@@H](CCCCNC(=O)COCCOCCNC(=O)CCCCCCCCCCCCCCC(=O)O)C(N)=O)NC(=O)CNC(=O)[C@H](Cc2c[nH]c3ccccc23)NC(=O)[C@H](CCCNC(=N)N)NC(=O)[C@@H](Cc2ccccc2)NC(=O)[C@H](Cc2c[nH]cn2)NC(=O)[C@H](CCC(=O)O)NC1=O)
assignedCategory: F
--
binder: Ac-DH[dF]RW[Orn]PPRDK(biscarboxymethyl(3))K([AEEA-Palmitoyl(16-(5-tetrazolyl))])-NH2 (lactam 1-6)
assignedCategory: T
--
binder: Ac-DH[dF]RW[Dap]PPRDK(NTA)K(X2)-NH2 (lactam 1-6; SMILES CC(=O)N[C@H]1CC(=O)NC[C@@H](C(=O)N2CCC[C@H]2C(=O)N2CCC[C@H]2C(=O)N[C@@H](CCCNC(=N)N)C(=O)N[C@@H](CC(=O)O)C(=O)N[C@@H](CCCCNC(=O)CN(CC(=O)O)CC(=O)O)C(=O)N[C@@H](CCCCNC(=O)COCCOCCNC(=O)CCCCCCCCCCCCCCCc2nn[nH]n2)C(N)=O)NC(=O)[C@H](Cc2c[nH]c3ccccc23)NC(=O)[C@H](CCCNC(=N)N)NC(=O)[C@@H](Cc2ccccc2)NC(=O)[C@H](Cc2c[nH]cn2)NC1=O)
assignedCategory: F
